Give measured Ratio IC50 for each item. Keep answers brief.
# assay.text: Selectivity index, ratio of IC50 for equine serum BChE to IC50 for electric eel AChE
Reply with the value as a number alone.

Recorded result, `COc1cc2oc(-c3cccc(OCC(=O)NCCCCCCNc4c5c(nc6cc(Cl)ccc46)CCCC5)c3)cc(=O)c2c(OC)c1OC` , Ratio IC50: 20.5

The molecule identified as `COc1cc2oc(-c3ccc(OCC(=O)NCCCCNc4c5c(nc6cc(Cl)ccc46)CCCC5)cc3)cc(=O)c2c(OC)c1OC` registered its Ratio IC50 at 23.5

Record `COc1cc2oc(-c3cccc(OCC(=O)NCCCNc4c5c(nc6cc(Cl)ccc46)CCCC5)c3)cc(=O)c2c(OC)c1OC` , field Ratio IC50: 15.4

Form field Ratio IC50, entry `COc1cc2oc(-c3cccc(OCC(=O)NCCCCNc4c5c(nc6cc(Cl)ccc46)CCCC5)c3)cc(=O)c2c(OC)c1OC` : 15

`COc1cc2oc(-c3cccc(OCC(=O)NCCCCCNc4c5c(nc6cc(Cl)ccc46)CCCC5)c3)cc(=O)c2c(OC)c1OC` yielded Ratio IC50 of 12.7

For record `COc1cc2oc(-c3ccc(OCC(=O)NCCCNc4c5c(nc6cc(Cl)ccc46)CCCC5)cc3)cc(=O)c2c(OC)c1OC` the listed Ratio IC50 is 13.9

Reported Ratio IC50 of `COc1cc2oc(-c3ccc(OCC(=O)NCCCCCNc4c5c(nc6cc(Cl)ccc46)CCCC5)cc3)cc(=O)c2c(OC)c1OC` : 36.2

So for `COc1cc2oc(-c3ccc(OCC(=O)NCCCCCCNc4c5c(nc6cc(Cl)ccc46)CCCC5)cc3)cc(=O)c2c(OC)c1OC` , the logged Ratio IC50 turned out to be 10.3
